Assay: Cytotoxicity in mouse melanoma cells (CellTiter-Glo)
Format: cell-based
Settings: mouse, B16F10 mouse melanoma cells; B16F10, 48 h, representative experiment
Result type: EC50 at 48 h (nM)
Give your result in nM as a bare value.

Cc1ccccc1O[C@H]1CCN(C(=O)COc2ccc(CO)cc2)C1 :: 46

Query molecule follows.
Req: What does the data say about its EC50 at 48 h? Entry: `O=C(COc1ccc(CO)cc1)N1CC[C@H](Oc2ccccc2OC(F)(F)F)C1`
Resp: 4.3

====

Tested on: Human subcutaneous pre-adipocytes
Experiment: Lipid accumulation in differentiating primary human adipocytes (AdipoRed)
Type: cell-based
Conditions: Adipocyte, 144 h, six days, read-out: IC50, reduction in lipid accumulation
# IC50 values compiled below

Cc1ccccc1O[C@H]1CCN(C(=O)COc2ccc(CO)cc2)C1 :: 56 nM

Query molecule follows.
Req: What does the data say about its IC50? Entry: `O=C(COc1ccc(CO)cc1)N1CC[C@H](Oc2ccccc2OC(F)(F)F)C1`
Resp: 24.2 nM
